- assay-procedure: AUC (0 to t) in F344/DuCrlCrlj rat at 0.5 mg/kg, po administered via gavage by LC-MS/MS analysis
- Format: ADME, organism-based
- Parameters: dose 0.5 mg/kg, dosed compound name [14C]Rivoglitazone, route oral
- condition: plasma
measurement-type: AUC(0-t) (ng·h/mL)
Field format: number, assumed ng·h/mL, no unit text.

(Q) Output AUC(0-t) of COc1ccc2nc(COc3ccc(CC4SC(=O)NC4=O)cc3)n(C)c2c1.Cl (racemic)
(A) 21000

###

- assay-procedure: Retention time of the compound by LC-MS/MS analysis
- Type: physicochemical
- Set-up: dosed compound name [14C]Rivoglitazone
measurement-type: Retention_time (min)
Provide only the numeric value, understood in min.

molecule	reported-value
COc1ccc2nc(COc3ccc(CC4SC(=O)NC4=O)cc3)n(C)c2c1.Cl (racemic)	23
Cn1c(COc2ccc(CC3SC(=O)NC3=O)cc2)nc2ccc(O[C@@H]3O[C@H](C(=O)O)[C@@H](O)[C@H](O)[C@H]3O)cc21 (stereo not given in full)	15.1
COc1ccc2nc(COc3ccc(CC(SC)C(=O)O)cc3)n(C)c2c1 (stereo not given)	24.1
Cn1c(COc2ccc(CC(SC(=O)N[C@@H]3O[C@H](C(=O)O)[C@@H](O)[C@H](O)[C@H]3O)C(=O)O)cc2)nc2ccc(O)cc21 (stereo not given in full)	13.9
Cn1c(COc2ccc(CC3SC(=O)NC3=O)cc2)nc2ccc(O)cc21 (stereo not given)	19
COc1ccc2nc(COc3ccc(CC(SSCC(N)C(=O)O)C(=O)O)cc3)n(C)c2c1 (stereo not given)	16.8

(Q) Quote Retention_time reported for COc1ccc2nc(COc3ccc(CC(SC(=O)N[C@@H]4O[C@H](C(=O)O)[C@@H](O)[C@H](O)[C@H]4O)C(=O)O)cc3)n(C)c2c1 (stereo not given in full) please.
(A) 17.2

(Q) Give reported Retention_time value for CSC(Cc1ccc(OCc2nc3ccc(O)cc3n2C)cc1)C(N)=O (stereo not given)
(A) 16.9

(Q) Please report Retention_time for the following molecule: O=C1NC(=O)C(Cc2ccc(OCc3nc4ccc(O)cc4[nH]3)cc2)S1 (stereo not given)
(A) 17.8

(Q) Please give measured Retention_time of the following entry: COc1ccc2nc(COc3ccc(CC(SC)C(N)=O)cc3)n(C)c2c1 (stereo not given)
(A) 20.9

###

- assay-procedure: AUC (0 to t) in monkey at 0.0986 mg/kg, po administered via gavage by LC-MS/MS analysis
- Type: ADME, organism-based, Macaca mulatta
- Design: dose 0.0986 mg/kg, dosed compound name [14C]Rivoglitazone, route oral
- condition: rhesus monkey, plasma
measurement-type: AUC(0-t) (ng·h/mL)
Number only, in ng·h/mL; omit the unit.

(Q) Answer with reported AUC(0-t) of COc1ccc2nc(COc3ccc(CC4SC(=O)NC4=O)cc3)n(C)c2c1.Cl (racemic)
(A) 3440

###

- assay-procedure: Tmax in monkey at 0.986 mg/kg, po administered via gavage by LC-MS/MS analysis
- Format: ADME, organism-based, Macaca mulatta
- Set-up: dose 0.986 mg/kg, dosed compound name [14C]Rivoglitazone, route oral
- condition: rhesus monkey, in vivo
measurement-type: Tmax (h)
Please give a number only; it is taken to be in h.

(Q) Supply measured Tmax of COc1ccc2nc(COc3ccc(CC4SC(=O)NC4=O)cc3)n(C)c2c1.Cl (racemic) in your reply.
(A) 3.5
